# method: Pharmacokinetic assays (plasma and tumor) in nude mice xenografted with MV4-11 cells
# Assay type: in vivo, mouse
# measurement_context: nude, mouse, plasma, po, 3 mg/kg, gilteritinib in plasma; gilteritinib 3, AraC 50, IDR 0.5 mg/kg; read-out: AUC24
measure_name: AUC

Quick check: AUC of `CCc1nc(C(N)=O)c(Nc2ccc(N3CCC(N4CCN(C)CC4)CC3)c(OC)c2)nc1NC1CCOCC1` ?
0.199 µg·h/mL

###

# method: Pharmacokinetic assays (plasma and tumor) in nude mice xenografted with MV4-11 cells
# Assay type: in vivo, mouse
# measurement_context: nude, mouse, plasma, po, 3 mg/kg, gilteritinib in plasma; gilteritinib 3, azacitidine 3 mg/kg
measure_name: Tmax (h)
Record the value in h, omitting the unit from your answer.

Quick check: Tmax of `CCc1nc(C(N)=O)c(Nc2ccc(N3CCC(N4CCN(C)CC4)CC3)c(OC)c2)nc1NC1CCOCC1` ?
2

Data provenance: paper PMC6493465
